pIC50, thrombin (Homo sapiens): measured values
Where a name gives a salt, the structure may show the parent alone.
Remember, pIC50 is on a log scale: it is -log10 of the molar concentration.

Reported pIC50 for thrombin (Homo sapiens), given N=C(N)c1ccc2cc(OC(=O)c3ccc(CNC(=O)CCC(=O)O)o3)ccc2c1 [Example 21, hydrochloride] ?
6.02

CN(C)C(=O)COC(=O)CCC(=O)NCc1ccc(C(=O)Oc2ccc3cc(C(=N)N)ccc3c2)o1 [Example 31, hydrochloride] , same question.
6.82

Now consider CC(C)(C)OC(=O)CCC(=O)NCc1ccc(C(=O)Oc2ccc3cc(C(=N)N)ccc3c2)o1 [Example 18, hydrochloride] and answer again.
6.46

For N=C(N)c1ccc2cc(OC(=O)c3ccc(CNC(=O)C(=O)O)o3)ccc2c1 [Example 16, hydrochloride] then?
5.89

And CC(C)(C)OC(=O)CCCC(=O)NCc1ccc(C(=O)Oc2ccc3cc(C(=N)N)ccc3c2)o1 [Example 19, hydrochloride] ?
6.44

Further, for N=C(N)c1ccc2cc(OC(=O)c3ccc(CNC(=O)[C@H]4CC[C@@H](C(=O)O)CC4)o3)ccc2c1 [Example 10, hydrochloride] ?
5.80

// repeat for Cl.N=C(N)c1ccc2cc(OC(=O)c3ccc(CNC(=O)[C@H]4CC[C@H](C(=O)O)CC4)o3)ccc2c1 [Example 11, hydrochloride] and report
5.92

###

Test: in vivo
Conditions: in vivo, po; rat
Measured property: LD50 at 336 h

I'd like to know its LD50 at 336 h. The molecule in question is Cl.N=C(N)c1ccc2cc(OC(=O)c3ccc(CNC(=O)CCCC(=O)O)o3)ccc2c1
> 2000 mg/kg

###

Task for the reader: assign each of the following compounds its reported pIC50.
Target sequence: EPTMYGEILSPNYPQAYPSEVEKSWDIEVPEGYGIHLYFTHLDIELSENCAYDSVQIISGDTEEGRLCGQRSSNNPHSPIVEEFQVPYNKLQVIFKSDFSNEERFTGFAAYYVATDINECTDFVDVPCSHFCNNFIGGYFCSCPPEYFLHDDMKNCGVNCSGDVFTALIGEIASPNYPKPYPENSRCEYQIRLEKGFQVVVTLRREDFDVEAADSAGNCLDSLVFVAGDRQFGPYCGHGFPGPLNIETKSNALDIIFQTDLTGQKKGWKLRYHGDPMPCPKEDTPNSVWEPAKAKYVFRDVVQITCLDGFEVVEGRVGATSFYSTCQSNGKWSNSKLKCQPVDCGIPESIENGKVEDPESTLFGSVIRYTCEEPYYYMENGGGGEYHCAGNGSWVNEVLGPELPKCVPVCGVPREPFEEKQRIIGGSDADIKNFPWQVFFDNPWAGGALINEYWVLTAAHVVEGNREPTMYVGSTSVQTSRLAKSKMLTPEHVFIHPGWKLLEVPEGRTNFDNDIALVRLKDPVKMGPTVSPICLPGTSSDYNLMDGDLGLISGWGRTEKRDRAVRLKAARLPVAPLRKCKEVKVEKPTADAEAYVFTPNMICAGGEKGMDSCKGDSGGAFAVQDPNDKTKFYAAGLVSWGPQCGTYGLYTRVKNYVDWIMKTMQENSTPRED
Where a name gives a salt, the structure may show the parent alone.
Give only the number. pIC50 is defined as minus log10 of concentration in molar units.

Quick one: pIC50 for N=C(N)c1ccc2cc(OC(=O)c3ccc(CNC(=O)/C=C\C(=O)O)o3)ccc2c1 [Example 12, methanesulfonate] ?
6.68

Lookup Cl.N=C(N)c1ccc2cc(OC(=O)c3ccc(CNC(=O)[C@H]4CC[C@H](C(=O)O)CC4)o3)ccc2c1 [Example 11, hydrochloride]
6.55

Same for N=C(N)c1ccc2cc(OC(=O)c3ccc(CNC(=O)C=Cc4ccc(C(=O)O)cc4)o3)ccc2c1 [Example 8, hydrochloride]
5.70

Same thing, different compound: COC(=O)CCC(=O)NCc1ccc(C(=O)Oc2ccc3cc(C(=N)N)ccc3c2)o1.Cl [Example 34, hydrochloride]
6.77

What about CN(C)C(=O)COC(=O)CCC(=O)NCc1ccc(C(=O)Oc2ccc3cc(C(=N)N)ccc3c2)o1 [Example 31, hydrochloride] ?
6.35

Then Cl.N=C(N)c1ccc2cc(OC(=O)c3ccc(CNC(=O)Cc4ccc(C(=O)O)cc4)o3)ccc2c1 [Example 6, hydrochloride] ?
6.57

Please answer likewise for N=C(N)c1ccc2cc(OC(=O)c3ccc(CNC(=O)C(=O)O)o3)ccc2c1 [Example 16, hydrochloride]
6.46

###

System: kallikrein
Experiment: anti-kallikrein activity, hydrolysis of TAME (tosylarginine methyl ester)
Type: biochemical
Conditions: hydrolysis of TAME; read-out: Kal: molar concentration inhibiting 50% of enzyme activity (IC50)
Counter-ions that a name gives are not always drawn.
Measured property: pIC50
// scale note: pIC50 = -log10(conc_M); give the bare number

Value lookup for pIC50; key = CC(C)(C)OC(=O)c1ccc(CC(=O)NCc2ccc(C(=O)Oc3ccc4cc(C(=N)N)ccc4c3)o2)cc1 [Example 5, hydrochloride]
6.52

Do the same for N=C(N)c1ccc2cc(OC(=O)c3ccc(CNC(=O)CCC(=O)O)o3)ccc2c1 [Example 21, hydrochloride] please
6.15

And Cl.N=C(N)c1ccc2cc(OC(=O)c3ccc(CNC(=O)CC(=O)O)o3)ccc2c1 [Example 17, hydrochloride] ?
5.96

Queued: COC(=O)Cc1ccc(C(=O)NCc2ccc(C(=O)Oc3ccc4cc(C(=N)N)ccc4c3)o2)cc1 [Example 4, hydrochloride]
6.68

Do the same for CN(C)C(=O)COC(=O)CCC(=O)NCc1ccc(C(=O)Oc2ccc3cc(C(=N)N)ccc3c2)o1 [Example 31, hydrochloride] please
6.77

Subsequent entry: Cl.N=C(N)c1ccc2cc(OC(=O)c3ccc(CNC(=O)Cc4ccc(C(=O)O)cc4)o3)ccc2c1 [Example 6, hydrochloride]
6.08

What do you get for COC(=O)CCC(=O)NCc1ccc(C(=O)Oc2ccc3cc(C(=N)N)ccc3c2)o1.Cl [Example 34, hydrochloride] ?
6.89

Also N=C(N)c1ccc2cc(OC(=O)c3ccc(CNC(=O)c4ccc(CC(=O)O)cc4)o3)ccc2c1 [Example 7, hydrochloride] ?
5.82

And N=C(N)c1ccc2cc(OC(=O)c3ccc(CNC(=O)C(=O)O)o3)ccc2c1 [Example 16, hydrochloride] ?
5.42

What about this compound? N=C(N)c1ccc2cc(OC(=O)c3ccc(CNC(=O)[C@H]4CC[C@@H](C(=O)O)CC4)o3)ccc2c1 [Example 10, hydrochloride]
6.60

###

For each entry below, report its IC50 value.
Biological target: UniProt:P00760
Sequence (P00760 24-246): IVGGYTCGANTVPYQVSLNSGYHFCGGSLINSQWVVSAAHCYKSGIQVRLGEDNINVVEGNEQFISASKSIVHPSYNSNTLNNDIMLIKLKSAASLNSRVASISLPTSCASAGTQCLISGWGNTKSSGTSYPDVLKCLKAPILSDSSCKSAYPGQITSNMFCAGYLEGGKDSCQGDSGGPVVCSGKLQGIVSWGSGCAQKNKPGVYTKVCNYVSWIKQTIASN
Test: anti-trypsin activity, hydrolysis of TAME (tosylarginine methyl ester)
Type: biochemical
Conditions: hydrolysis of TAME; read-out: Try: molar concentration inhibiting 50% of enzyme activity (IC50)
Where a name gives a salt, the structure may show the parent alone.
Output spec: scalar in nM, unitless text.

Recorded IC50 for CC(C)(C)OC(=O)CCCC(=O)NCc1ccc(C(=O)Oc2ccc3cc(C(=N)N)ccc3c2)o1 [Example 19, hydrochloride] , please?
250

Also check N=C(N)c1ccc2cc(OC(=O)c3ccc(CNC(=O)/C=C\C(=O)O)o3)ccc2c1 [Example 12, methanesulfonate]
480

Also check CC(C)(C)OC(=O)CCC(NC(=N)N)C(=O)NCc1ccc(C(=O)Oc2ccc3cc(C(=N)N)ccc3c2)o1 (stereo not drawn) [Example 20, hydrochloride hydrobromide]
2000

Same for Cc1oc(=O)oc1COC(=O)CCC(=O)NCc1ccc(C(=O)Oc2ccc3cc(C(=N)N)ccc3c2)o1 [Example 33, hydrochloride]
6600

Same lookup for COC(=O)CCC(=O)NCc1ccc(C(=O)Oc2ccc3cc(C(=N)N)ccc3c2)o1.Cl [Example 34, hydrochloride] , please.
270

Then this compound: CC(C)(C)OC(=O)c1ccc(CC(=O)NCc2ccc(C(=O)Oc3ccc4cc(C(=N)N)ccc4c3)o2)cc1 [Example 5, hydrochloride]
340

###

Task for the reader: assign each of the following compounds its reported log10 IC50.
Biological target: C1r (Homo sapiens)
Sequence (P00736 18-705): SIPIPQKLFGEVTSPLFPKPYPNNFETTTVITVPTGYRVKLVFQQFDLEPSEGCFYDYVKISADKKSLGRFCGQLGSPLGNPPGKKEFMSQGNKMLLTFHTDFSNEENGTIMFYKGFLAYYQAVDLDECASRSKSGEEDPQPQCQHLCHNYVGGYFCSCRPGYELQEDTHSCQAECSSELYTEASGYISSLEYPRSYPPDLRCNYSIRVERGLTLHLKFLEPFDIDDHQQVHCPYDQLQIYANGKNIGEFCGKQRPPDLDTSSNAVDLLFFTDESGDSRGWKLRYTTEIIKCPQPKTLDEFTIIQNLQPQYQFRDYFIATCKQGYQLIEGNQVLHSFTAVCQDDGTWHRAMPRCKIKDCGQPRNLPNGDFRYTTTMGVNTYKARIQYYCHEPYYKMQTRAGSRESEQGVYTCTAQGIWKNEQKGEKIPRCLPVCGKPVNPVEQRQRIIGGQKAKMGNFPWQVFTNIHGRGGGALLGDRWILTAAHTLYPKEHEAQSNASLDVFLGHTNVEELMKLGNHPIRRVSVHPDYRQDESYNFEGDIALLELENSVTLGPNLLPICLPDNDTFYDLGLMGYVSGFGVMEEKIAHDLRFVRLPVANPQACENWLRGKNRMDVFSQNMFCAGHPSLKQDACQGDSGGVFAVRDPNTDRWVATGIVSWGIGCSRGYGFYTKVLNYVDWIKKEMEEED
Test: anti-complement (anti-C1 esterase) activity, C1r hydrolysis of AAME (acetyl-arginine methyl ester)
Type: biochemical
Details: hydrolysis of AAME; read-out: Clr: molar concentration inhibiting 50% of C1r activity (IC50)
Counter-ions that a name gives are not always drawn.
For clarity, the numbers are log10 values of IC50 expressed in nM.

Lab request: please report log10 IC50 under test system C1r (Homo sapiens) for CC(C)(C)OC(=O)CCC(=O)NCc1ccc(C(=O)Oc2ccc3cc(C(=N)N)ccc3c2)o1 [Example 18, hydrochloride]
2.53

Try this compound next: CC(C)(C)OC(=O)C=Cc1ccc(C(=O)NCc2ccc(C(=O)Oc3ccc4cc(C(=N)N)ccc4c3)o2)cc1 [Example 1, hydrobromide]
2.53

Param item: Cl.N=C(N)c1ccc2cc(OC(=O)c3ccc(CNC(=O)CC(=O)O)o3)ccc2c1 [Example 17, hydrochloride]
3.23

Field entry: N=C(N)c1ccc2cc(OC(=O)c3ccc(CNC(=O)CCC(=O)O)o3)ccc2c1 [Example 21, hydrochloride]
2.73

Okay, and CC(C)(C)OC(=O)c1ccc(CC(=O)NCc2ccc(C(=O)Oc3ccc4cc(C(=N)N)ccc4c3)o2)cc1 [Example 5, hydrochloride] ?
1.86

Proceed to N=C(N)NC(CCC(=O)O)C(=O)NCc1ccc(C(=O)Oc2ccc3cc(C(=N)N)ccc3c2)o1 (stereo not drawn) [Example 29, dihydrobromide]
2.64
